molecular target: ligand binding domain of human FXR (Homo sapiens (Human), UniProt Q96RI1); experiment: FXR ligand binding assay (LanthaScreen TR-FRET, SRC2-2 peptide recruitment); conditions: extent of activation relative to GW4064; read-out: % Efficacy
Sequence (Q96RI1 262-486): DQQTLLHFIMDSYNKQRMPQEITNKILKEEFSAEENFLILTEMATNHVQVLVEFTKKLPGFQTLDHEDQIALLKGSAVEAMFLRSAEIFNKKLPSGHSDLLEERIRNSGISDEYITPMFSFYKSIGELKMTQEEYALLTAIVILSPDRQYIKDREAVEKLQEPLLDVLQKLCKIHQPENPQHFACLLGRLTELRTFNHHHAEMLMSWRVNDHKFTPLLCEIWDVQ
Documented Emax across a set of molecules

- molecule: "Cc1cc(N2C(=O)[C@@H]3C[C@H]2C[C@H]3OCc2c(-c3c(Cl)cccc3Cl)noc2C2CC2)ccc1C(=O)O"
  Emax [%]: 152
- molecule: "CC1(C)CC(S(=O)(=O)NC(=O)c2ccc(N3C(=O)[C@@H]4C[C@H]3C[C@H]4OCc3c(-c4c(Cl)cccc4Cl)noc3C3CC3)cc2F)CCO1 (stereo partly drawn)"
  Emax [%]: 156
- molecule: "O=C(NS(=O)(=O)[C@@H]1CCC[C@H]1O)c1ccc(N2C(=O)[C@@H]3C[C@H]2C[C@H]3OCc2c(-c3c(Cl)cccc3Cl)noc2C2CC2)cc1F"
  Emax [%]: 188
- molecule: "O=C(O)c1cc(C2CCC2)c2nc(N3C[C@H]4C[C@@H]3C[C@@H]4OCc3c(-c4c(Cl)cccc4Cl)noc3C3CC3)sc2c1"
  Emax [%]: 116
- molecule: "O=C(O)c1cc(F)c2nc(N3C[C@@H]4C[C@H]3C[C@H]4OCc3c(-c4ccccc4O)noc3C3CC3)sc2c1"
  Emax [%]: 120
- molecule: "Cc1cccc(Cl)c1-c1noc(C2CC2)c1CO[C@@H]1C[C@@H]2C[C@H]1CN2c1nc2c(O[C@H]3CCOC3)cc(C(=O)O)cc2s1"
  Emax [%]: 150
